// provenance: patent US12448392B2

# SYSTEM_NAME: recombinant human baculovirus-expressed GST-tagged FASN (Homo sapiens)
# Construct: GST
# Sequence (P49327 whole entry): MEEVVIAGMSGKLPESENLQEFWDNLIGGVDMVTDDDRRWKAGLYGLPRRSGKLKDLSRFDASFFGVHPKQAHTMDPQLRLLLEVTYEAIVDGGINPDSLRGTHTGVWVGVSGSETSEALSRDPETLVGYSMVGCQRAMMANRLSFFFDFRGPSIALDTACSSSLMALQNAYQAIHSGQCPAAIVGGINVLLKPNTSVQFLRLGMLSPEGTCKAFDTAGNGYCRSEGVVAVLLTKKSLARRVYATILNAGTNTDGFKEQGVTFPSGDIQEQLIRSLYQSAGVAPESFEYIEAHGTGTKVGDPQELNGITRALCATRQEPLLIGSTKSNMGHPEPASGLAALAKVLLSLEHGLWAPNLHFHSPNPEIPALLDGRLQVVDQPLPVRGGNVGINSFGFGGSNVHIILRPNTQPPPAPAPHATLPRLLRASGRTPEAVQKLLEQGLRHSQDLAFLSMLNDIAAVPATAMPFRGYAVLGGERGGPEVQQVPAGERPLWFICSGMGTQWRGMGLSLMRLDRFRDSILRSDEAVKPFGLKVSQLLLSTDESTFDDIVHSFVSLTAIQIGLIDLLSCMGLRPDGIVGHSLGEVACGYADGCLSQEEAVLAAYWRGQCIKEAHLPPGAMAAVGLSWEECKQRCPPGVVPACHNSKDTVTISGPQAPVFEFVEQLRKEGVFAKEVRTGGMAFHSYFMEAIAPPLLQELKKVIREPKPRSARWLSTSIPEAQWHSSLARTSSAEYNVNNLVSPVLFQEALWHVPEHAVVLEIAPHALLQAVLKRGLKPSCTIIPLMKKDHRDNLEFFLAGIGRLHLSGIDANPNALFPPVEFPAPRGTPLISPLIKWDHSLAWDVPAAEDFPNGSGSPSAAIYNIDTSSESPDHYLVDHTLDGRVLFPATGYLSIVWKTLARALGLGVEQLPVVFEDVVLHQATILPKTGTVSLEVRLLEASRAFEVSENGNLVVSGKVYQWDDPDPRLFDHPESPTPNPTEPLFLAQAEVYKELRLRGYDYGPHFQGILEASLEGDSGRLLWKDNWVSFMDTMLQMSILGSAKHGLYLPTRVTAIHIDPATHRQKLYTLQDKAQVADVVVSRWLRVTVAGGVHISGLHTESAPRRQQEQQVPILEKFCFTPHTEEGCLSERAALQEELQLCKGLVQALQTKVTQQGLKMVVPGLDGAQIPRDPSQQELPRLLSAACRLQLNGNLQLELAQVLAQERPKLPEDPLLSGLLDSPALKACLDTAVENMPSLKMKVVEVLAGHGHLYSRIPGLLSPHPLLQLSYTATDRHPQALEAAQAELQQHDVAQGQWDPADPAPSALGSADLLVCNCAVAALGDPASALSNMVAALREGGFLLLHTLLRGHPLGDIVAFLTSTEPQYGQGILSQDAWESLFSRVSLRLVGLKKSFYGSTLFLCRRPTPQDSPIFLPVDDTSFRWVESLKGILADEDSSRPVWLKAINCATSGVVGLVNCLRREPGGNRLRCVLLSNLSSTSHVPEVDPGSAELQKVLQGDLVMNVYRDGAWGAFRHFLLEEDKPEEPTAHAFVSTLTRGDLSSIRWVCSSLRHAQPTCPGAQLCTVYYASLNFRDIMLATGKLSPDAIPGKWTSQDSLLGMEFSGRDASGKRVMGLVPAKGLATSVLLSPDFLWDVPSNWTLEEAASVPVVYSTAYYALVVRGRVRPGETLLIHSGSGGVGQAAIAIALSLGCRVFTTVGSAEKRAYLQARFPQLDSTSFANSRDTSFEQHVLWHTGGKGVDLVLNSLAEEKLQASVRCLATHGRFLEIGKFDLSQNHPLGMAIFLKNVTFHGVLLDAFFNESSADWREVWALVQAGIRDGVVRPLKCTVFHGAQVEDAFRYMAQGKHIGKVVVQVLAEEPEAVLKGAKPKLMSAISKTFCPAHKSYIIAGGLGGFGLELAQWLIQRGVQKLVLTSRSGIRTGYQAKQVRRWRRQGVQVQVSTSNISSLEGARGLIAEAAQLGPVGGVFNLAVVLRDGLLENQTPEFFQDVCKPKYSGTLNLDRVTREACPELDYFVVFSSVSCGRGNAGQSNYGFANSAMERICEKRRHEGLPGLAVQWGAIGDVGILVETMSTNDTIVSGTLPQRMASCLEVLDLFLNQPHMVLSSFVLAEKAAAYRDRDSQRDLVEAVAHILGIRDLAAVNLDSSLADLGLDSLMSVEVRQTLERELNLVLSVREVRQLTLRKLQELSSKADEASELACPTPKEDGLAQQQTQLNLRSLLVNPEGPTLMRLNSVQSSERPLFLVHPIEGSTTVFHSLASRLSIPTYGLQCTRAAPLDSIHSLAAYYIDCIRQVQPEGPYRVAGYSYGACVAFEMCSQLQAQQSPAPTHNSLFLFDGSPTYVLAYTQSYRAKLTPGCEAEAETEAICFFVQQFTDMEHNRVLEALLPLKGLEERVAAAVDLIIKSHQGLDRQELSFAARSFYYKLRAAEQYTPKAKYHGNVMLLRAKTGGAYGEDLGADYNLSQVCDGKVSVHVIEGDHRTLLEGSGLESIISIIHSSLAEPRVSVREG
# TEST_DETAILS: biochemical
# EXPERIMENTAL_CONTEXT: 5 nM FASN, 150 μM NADPH, 10 μM acetyl-CoA, 25 μM malonyl-CoA, 90 minutes incubation; read-out: IC50 data for Compounds of Formula I, Activity
Counter-ions that a name gives are not always drawn.
RECORDED_ENDPOINT: IC50

Entry COc1c(-c2ccc3c(c2)CCC2(CCN(C(=O)[C@H]4CCCO4)CC2)O3)ccc2cccnc12 [Example 16, HCl] , IC50 reported as 1 to 99 nM

Entry `CCCNC(=O)N1CCC2(CCc3cc(-c4ccc5cccnc5c4C)ccc3O2)CC1` , IC50 reported as 1 to 99 nM

Entry `CCC(=O)N1CCC2(CCc3cc(-c4cnc5ccccc5c4)ccc3O2)CC1` , IC50 reported as 1 to 99 nM

Entry `CCNC(=O)N1CCC2(CC1)Cc1cc(-c3cnc4ccccc4c3C)ccc1O2` , IC50 reported as 1000 to 10000 nM

Entry O=C(NOC1CCCCO1)N1CCC2(CCc3cc(-c4ccc5cccnc5c4Cl)ccc3O2)CC1 (centres unmarked) , IC50 reported as 1 to 99 nM

Entry Cc1c(-c2ccc3c(c2)CCC2(CCN(C(=O)[C@H]4CCCO4)CC2)O3)ccc2cccnc12 [Example 8, HCl] , IC50 reported as 1 to 99 nM

Entry `CCONC(=O)N1CCC2(CC1)Cc1cc(-c3ccc4cccnc4c3OC)ccc1O2` , IC50 reported as 1000 to 10000 nM

Entry `Cc1c(-c2ccc3c(c2)CC2(CCN(C(=O)NO)CC2)O3)cnc2ccccc12` , IC50 reported as 1000 to 10000 nM
